- Study target: PD-1/PD-L1 interaction (PD-1-Ig / PD-L1-His) (Homo sapiens (Human), UniProt Q9NZQ7)
- Sequence (Q9NZQ7 other isoform, or with tags, fused parts or gaps): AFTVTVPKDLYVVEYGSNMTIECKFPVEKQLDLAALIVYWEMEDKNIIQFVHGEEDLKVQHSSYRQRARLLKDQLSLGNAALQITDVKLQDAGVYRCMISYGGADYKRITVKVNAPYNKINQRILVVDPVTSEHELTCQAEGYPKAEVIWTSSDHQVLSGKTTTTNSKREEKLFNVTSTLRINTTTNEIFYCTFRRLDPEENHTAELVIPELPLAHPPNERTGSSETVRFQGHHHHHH
- Protocol summary: PD-1/PD-L1 Homogenous Time-Resolved Fluorescence (HTRF) binding assay
- Applied conditions: PD-1/PD-L1 HTRF binding assay; value given as range class; read-out: Range or IC50
Property measured: IC50

# Compound, IC50
measured = [
    ("CC(=O)NCCNCc1ccc(OCc2cccc(-c3ccccc3)c2C)cc1OCc1ccc(F)cc1", "100 to 20000 nM"),
]

Would you kindly share the measured IC50 for `Cc1cc(CN2CCCC[C@H]2C(=O)O)c(OCc2cncc(C#N)c2)cc1OCc1cccc(-c2ccc3c(c2)OCCO3)c1C#N` ?
0.6 to 10 nM

Any idea what IC50 was measured for `CC(=O)NCCNCc1ccc(OCc2cccc(-c3ccccc3)c2C)c(Cl)c1OCc1cccc(C#N)c1` ?
100 to 20000 nM

IC50 lookup needed for `COc1cc(OCc2cccc(-c3ccccc3)c2C)cc(OCc2cccc(C#N)c2)c1CN[C@@H](C(=O)O)[C@@H](C)O` , thanks.
10 to 100 nM

Would you mind telling me what IC50 value was observed for `Cc1cc(CN[C@@](C)(CO)C(=O)O)c(OCc2ccc(F)c(C#N)c2)cc1OCc1cccc(-c2ccc3c(c2)OCCO3)c1C` ?
0.6 to 10 nM

So what does the record say about IC50 for `CC(=O)NCCNCc1ccc(OCc2cccc(-c3ccccc3)c2C)cc1OCc1ccc(OC(F)F)cc1` ?
100 to 20000 nM

Entry Cc1c(COc2cc(OCc3cccc(C#N)c3)c(CNCC(O)CN3CCCC3=O)cc2Cl)cccc1-c1ccc2c(c1)OCCO2 (stereo not shown) : reported IC50 = ?
0.6 to 10 nM

###

Quick list: pIC50 per entry.
- Study target: PD-1/PD-L1 interaction (PD-1-Ig / PD-L1-His) (Homo sapiens (Human))
- Protocol summary: PD-1/PD-L1 Homogenous Time-Resolved Fluorescence (HTRF) binding assay
- Applied conditions: PD-1/PD-L1 HTRF binding assay; value given as range class; read-out: Range or IC50
pIC50: −log10 of the molar value.

Example entries begin here.
# Compound, Property measured, Test value
records = [
    ("Cc1c(COc2cc(OCc3cccc(S(C)(=O)=O)c3)c(C=O)cc2Cl)cccc1-c1ccc2c(c1)OCCO2 [Example 3020]", "pIC50", "4.70 to 7.00"),
    ("Cc1c(COc2cc(OCc3ccnc(C(=O)N(C)C)c3)c(CN[C@@](C)(CO)C(=O)O)cc2Cl)cccc1-c1ccc2c(c1)OCCO2 [Example 3018]", "pIC50", "8.00 to 9.22"),
    ("Cc1c(COc2cc(OCc3cccc(C#N)c3)c(CN[C@@](C)(CO)C(=O)O)cc2Cl)cccc1-c1ccc2c(c1)OCCO2 [Example 1245]", "pIC50", "8.00 to 9.22"),
    ("CC(=O)NCCNCc1ccc(OCc2cccc(-c3ccccc3)c2C)cc1OCc1cccc(C#N)c1 [Example 1028]", "pIC50", "7.00 to 8.00"),
    ("CC(=O)NCCNCc1c(C)cc(OCc2cccc(-c3ccc4c(c3)OCCO4)c2C)cc1OCc1cccc(C#N)c1 [Example 1000]", "pIC50", "7.00 to 8.00"),
]

Requested field: pIC50. Item: CC(=O)NCCNCc1ccc(OCc2cccc(-c3ccccc3)c2C)cc1OCc1ccc(C#N)cc1 [Example 1029]
4.70 to 7.00

What measured pIC50 goes with N#Cc1cccc(COc2cc(OCc3cccc(-c4ccc5c(c4)OCCO5)c3Cl)ccc2CN2CCCC[C@H]2C(=O)O)c1 [Example 1145] ?
7.00 to 8.00

Record request: pIC50 value, item CC(=O)NCCNCc1ccc(OCc2cccc(-c3ccccc3)c2C)cc1OCCCO [Example 1035]
4.70 to 7.00

Any idea what its pIC50 is? The compound is Cc1cc(CN[C@H](CO)C(=O)O)c(OCc2cncc(C#N)c2)cc1OCc1cccc(-c2ccc3c(c2)OCCO3)c1Cl [Example 1153]
8.00 to 9.22

Name the reported pIC50 value associated with the compound CC(=O)NCCNCc1ccc(OCc2cccc(-c3ccccc3)c2C)cc1OCc1noc(C)n1 [Example 1104]
4.70 to 7.00

Request the reported pIC50 associated with Cc1c(COc2ccc(CN[C@@H](C(=O)O)[C@H](C)O)c(OCc3cccc(C#N)c3)c2)cccc1-c1ccccc1 [Example 1015]
8.00 to 9.22

Given the compound Cc1c(COc2cc(OCc3cncc(C#N)c3)c(CN3CC[C@@H](O)C[C@H]3C(=O)O)cc2Cl)cccc1-c1ccc2c(c1)OCCO2 [Example 2008] , what is its reported pIC50?
8.00 to 9.22

Consider the compound Cc1c(COc2ccc(CN[C@](C)(CO)C(=O)O)c(OCc3cc(C#N)ccn3)c2)cccc1-c1ccc2c(c1)OCCO2 [Example 1131] and give its measured pIC50.
8.00 to 9.22

# pIC50 lookup, item Cc1c(COc2cc(OCc3cccc(C#N)c3)c(CN[C@H](CO)C(=O)O)cc2Cl)cccc1-c1ccc2c(c1)OCCO2 [Example 1157]
8.00 to 9.22

These entries and their values trace back to patent US9850225B2.
